Biological target: aggregated beta amyloid in AD tissue (Homo sapiens)
Test: Competitive radioligand binding to pathological aggregated beta amyloid in AD tissue (Assay 2), displacement of [^3H]-105
Settings: Aβ-rich AD frontal cortex homogenate, [^3H]-105, Kd 11.0 nM
pKi: −log10 of the molar value.
attribute_measured: pKi

Asked: # input compound: Cn1cc(-c2ccc(C#Cc3cnc(N4CCN(c5ncncn5)[C@@H](COCCF)C4)nc3)cn2)cn1 ; wanted: its pKi
Given back: ≤ 5.92

Asked: Follow-up entry: FCCOCCOC[C@H]1CN(c2ncc(/C=C/c3ccc(-c4cnco4)nc3)cn2)CCN1c1ncncn1
Given back: ≤ 5.92

Asked: Follow-up entry: Cn1cc(-c2ncc(C#Cc3cnc(N4CCN(c5ncccn5)[C@@H](COCCOCCF)C4)nc3)cn2)cn1
Given back: ≤ 5.92

Asked: Follow-up entry: OC[C@H]1CN(c2cc(F)ncn2)CCN1c1ncc(/C=C/c2ccc(-n3ccnc3)nc2)cn1
Given back: ≤ 4.92

Asked: Follow-up entry: COC[C@H]1CN(c2ncc(C#Cc3ccc(-n4ccnc4)nc3)cn2)CCN1c1cncc(F)n1
Given back: ≤ 5.92

Asked: Follow-up entry: OC(CF)COC[C@H]1CN(c2ncc(C#Cc3ccc(-c4cnco4)nc3)cn2)CCN1c1ncncn1 (stereo partly shown)
Given back: ≤ 5.92

Asked: Follow-up entry: FCCOC[C@H]1CN(c2ncc(C#Cc3ccc(-n4cnnc4)nc3)cn2)CCN1c1ncncn1
Given back: ≤ 5.92

Asked: Follow-up entry: COC[C@H]1CN(c2cc(F)ccn2)CCN1c1ncc(/C=C/c2ccc(N3CCOCC3)nc2)cn1
Given back: 6.35

Asked: Follow-up entry: FCCOC[C@H]1CN(c2ncc(/C=C/c3ccc(-c4cnco4)nc3)cn2)CCN1c1ncncn1
Given back: ≤ 5.92

Asked: Follow-up entry: Cn1cc(-c2ncc(C#Cc3cnc(N4CCN(c5ncccn5)[C@@H](COCCOCCOCCF)C4)nc3)cn2)cn1
Given back: ≤ 5.92

Asked: Follow-up entry: COC[C@H]1CN(c2ccccn2)CCN1c1ncc(/C=C/c2cnc3nc(C)cn3c2)cn1
Given back: ≤ 4.92

Asked: Follow-up entry: CNCC1CN(c2cc(F)ncn2)CCN1c1ncc(C#Cc2ccc(-c3cnco3)nc2)cn1 (stereo not shown)
Given back: ≤ 5.92

Asked: Follow-up entry: COC[C@H]1CN(c2ccccn2)CCN1c1ncc(/C=C/c2ccc(-n3cnnc3)nc2)cn1
Given back: ≤ 4.92

---

Molecular target: triton-extracted alpha-synuclein from PD Tissue (Homo sapiens, UniProt P37840)
Construct: tissue Analytic Biological Services Inc; host or cells: human PD temporal cortex grey matter, Triton X-100 insoluble pellet
Test: Alpha-synuclein tissue homogenate binding assay (Assay 1), displacement of [^3H]-1000
Conditions: insoluble fraction of PD brain homogenate, [^3H]-1000 3.0 nM, Kd 0.90 nM; read-out: α-synuclein Tissue Ki (Assay 1)
attribute_measured: pKi
Keep it numeric: pKi is minus log10 of the concentration in mol/L.

Asked: # input compound: COC[C@H]1CN(c2ncc(C#Cc3ccc(-n4ccnc4)nc3)cn2)CCN1c1ncccn1 [Example 11] ; wanted: its pKi
Given back: 8.96

Asked: Follow-up entry: FCCOC[C@H]1CN(c2ncc(C#Cc3ccc(N4CCn5cnnc5C4)nc3)cn2)CCN1c1ncncn1 [Example 75]
Given back: 9.04

Asked: Follow-up entry: COC[C@H]1CN(c2ncc(/C=C/c3ccc(-n4ccnc4)nc3)cn2)CCN1c1ncc(F)cn1 [Example 27]
Given back: 8.74

Asked: Follow-up entry: COC[C@H]1CN(c2ncc(C#Cc3ccc(-n4cnnc4)nc3)cn2)CCN1c1cc(F)ncn1 [Example 45]
Given back: 8.69

---

Provide the recorded Ki for the entries that follow.
Molecular target: aggregated beta amyloid in AD tissue (Homo sapiens, UniProt P05067)
Sequence (P05067 672-711 limits assumed): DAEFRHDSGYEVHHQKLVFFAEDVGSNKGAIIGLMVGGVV
Assay: Competitive radioligand binding to pathological aggregated beta amyloid in AD tissue (Assay 2), displacement of [^3H]-105
Conditions: Aβ-rich AD frontal cortex homogenate, [^3H]-105, Kd 11.0 nM
Give the number; nM is assumed, so skip it.

Asked: # input compound: COCCOC[C@H]1CN(c2ccccn2)CCN1c1ncc(/C=C/c2ccc(-n3ccnc3)nc2)cn1 ; wanted: its Ki
Given back: 180

Asked: Follow-up entry: COC[C@H]1CN(c2cc3cnccn3c2)CCN1c1ncc(/C=C/c2ccc(-n3cccn3)nc2)cn1
Given back: 13000

Asked: Follow-up entry: COC[C@H]1CN(c2ncc(/C=C/c3ccc(-n4ccnc4)nc3)cn2)CCN1c1ncc(CO)cn1
Given back: 480

Asked: Follow-up entry: FCCOC[C@H]1CN(c2ccncc2)CCN1c1ncc(/C=C/c2ccc(-n3ccnc3)nc2)cn1
Given back: 1300

---

Provide the recorded Ki for the entries that follow.
Molecular target: triton-extracted alpha-synuclein from PD Tissue (Homo sapiens, UniProt P37840)
Construct: tissue Analytic Biological Services Inc; host or cells: human PD temporal cortex grey matter, Triton X-100 insoluble pellet
Assay: Alpha-synuclein tissue homogenate binding assay (Assay 1), displacement of [^3H]-1000
Conditions: insoluble fraction of PD brain homogenate, [^3H]-1000 3.0 nM, Kd 0.90 nM; read-out: α-synuclein Tissue Ki (Assay 1)
Give the number; nM is assumed, so skip it.

Asked: For triton-extracted alpha-synuclein from PD Tissue (Homo sapiens, UniProt P37840), provide Ki of Cn1cc(-c2ncc(C#Cc3cnc(N4CCN(c5ncncn5)[C@@H](COCCOCCF)C4)nc3)cn2)cn1 please.
Given back: 1.59

Asked: Follow-up entry: COC[C@H]1CN(c2ccccn2)CCN1c1ncc(/C=C/c2cnc3nc(C)cn3c2)cn1
Given back: 1.4

Asked: Follow-up entry: COC[C@H]1CN(c2ccccn2)CCN1c1ncc(/C=C/c2ccc(-c3ncco3)nc2)cn1
Given back: 1.7

Asked: Follow-up entry: COC[C@H]1CN(c2ncc(C#Cc3ccc(-c4cnco4)nc3)cn2)CCN1c1ncc(OCCF)cn1
Given back: 1.7

Asked: Follow-up entry: COC[C@H]1CN(c2ncc(C#Cc3ccc(-c4cnn(CCOCCF)c4)nc3)cn2)CCN1c1ncncn1
Given back: 1.7

Asked: Follow-up entry: Cn1cc(-c2ncc(C#Cc3cnc(N4CCN(c5ncccn5)[C@@H](COCCOCCOCCF)C4)nc3)cn2)cn1
Given back: 1.43

Asked: Follow-up entry: FCCOCCOC[C@H]1CN(c2ncc(C#Cc3ccc(-c4cnco4)nc3)cn2)CCN1c1ncncn1
Given back: 0.897

Asked: Follow-up entry: COC[C@H]1CN(c2ncc(C)cn2)CCN1c1ncc(/C=C/c2ccc(-n3ccnc3)nc2)cn1
Given back: 0.9

Asked: Follow-up entry: COC[C@H]1CN(c2cc(F)ccn2)CCN1c1ncc(/C=C/c2ccc(N3CCOCC3)nc2)cn1
Given back: 1.6

Asked: Follow-up entry: OC(CF)COC[C@H]1CN(c2ncc(C#Cc3ccc(-c4cnco4)nc3)cn2)CCN1c1ncncn1 (some centres unmarked)
Given back: 1.5

Asked: Follow-up entry: COC[C@H]1CN(c2ncc(/C=C/c3ccc(-c4cnn(CCF)c4)nc3)cn2)CCN1c1ncccn1
Given back: 0.62

---

Target: aggregated beta amyloid in AD tissue (Homo sapiens, UniProt P05067)
Experiment: Competitive radioligand binding to pathological aggregated beta amyloid in AD tissue (Assay 2), displacement of [^3H]-105
Details: Aβ-rich AD frontal cortex homogenate, [^3H]-105, Kd 11.0 nM
pKi: −log10 of the molar value.
Provide the recorded pKi for the entries that follow.

Asked: # input compound: OCC(F)COC[C@H]1CN(c2ncc(C#Cc3ccc(-n4ccnc4)nc3)cn2)CCN1c1ncccn1 (stereo partly drawn) [Example 63] ; wanted: its pKi
Given back: ≤ 5.92

Asked: Follow-up entry: FCCOC[C@@H]1CN(c2ncc(C#Cc3ccc(-c4cnco4)nc3)cn2)CCN1c1ncncn1 [Example 62]
Given back: ≤ 5.92

Asked: Follow-up entry: COC[C@H]1CN(c2ncc(C#Cc3ccc(-c4cnco4)nc3)cn2)CCN1c1ccnc(F)c1 [Example 64]
Given back: ≤ 5.92

Asked: Follow-up entry: COC[C@H]1CN(c2ncc(C#Cc3ccc(N4CC(F)C4)nc3)cn2)CCN1c1ncccn1 [Example 68]
Given back: ≤ 5.92

Asked: Follow-up entry: COC[C@H]1CN(c2ccccn2)CCN1c1ncc(/C=C/c2ccc(-c3ncco3)nc2)cn1 [Example 20]
Given back: ≤ 4.92

Asked: Follow-up entry: COC[C@H]1CN(c2ncc(/C=C/c3ccc(-n4ccnc4)nc3)cn2)CCN1c1ncc(CF)cn1 [Example 8]
Given back: ≤ 4.92
